Provenance of the data: paper PMC11062906

Reported property: Kd (mM)
Write the answer as a number in mM, unit excluded.

*Q* Kd of O=C(CO)[C@@H](O)[C@H](O)[C@@H](O)CO [L-sorbose] on BmGr9 (Bombyx mori)?
*A* 63

###

- Target entity: BmGr9 R86K (Bombyx mori, UniProt B3GTD7, R86K)
- Protocol details: GCaMP calcium flux assay, BmGr9 R86K
Reported property: EC50

*Q* # get_value(readout='EC50', item= O=C(CO)[C@@H](O)[C@H](O)[C@H](O)CO )
*A* 10.4 mM

###

- Target entity: BmGr9 Q351N (Bombyx mori, UniProt B3GTD7, Q351N)
- Sequence (B3GTD7 entry or part of it Q351N): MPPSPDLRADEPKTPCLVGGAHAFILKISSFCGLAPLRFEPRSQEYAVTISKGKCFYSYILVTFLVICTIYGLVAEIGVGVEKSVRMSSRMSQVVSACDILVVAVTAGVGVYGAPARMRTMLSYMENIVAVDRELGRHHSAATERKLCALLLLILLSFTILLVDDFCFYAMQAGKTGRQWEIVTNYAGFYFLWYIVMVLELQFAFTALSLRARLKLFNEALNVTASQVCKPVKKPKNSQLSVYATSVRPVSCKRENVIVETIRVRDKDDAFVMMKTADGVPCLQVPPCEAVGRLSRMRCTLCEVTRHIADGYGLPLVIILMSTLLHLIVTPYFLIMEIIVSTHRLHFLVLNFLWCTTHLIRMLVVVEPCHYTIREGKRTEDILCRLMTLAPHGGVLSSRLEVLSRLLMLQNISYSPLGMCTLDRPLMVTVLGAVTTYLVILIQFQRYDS
- Protocol details: GCaMP calcium flux assay, BmGr9 Q351N
Reported property: EC50

*Q* # get_value(readout='EC50', item= O=C(CO)[C@@H](O)[C@H](O)[C@H](O)CO [D-fructose] )
*A* ~8 mM

###

- Target entity: BmGr9 F189Y (Bombyx mori, UniProt B3GTD7, F189Y)
- Sequence (B3GTD7 entry or part of it F189Y): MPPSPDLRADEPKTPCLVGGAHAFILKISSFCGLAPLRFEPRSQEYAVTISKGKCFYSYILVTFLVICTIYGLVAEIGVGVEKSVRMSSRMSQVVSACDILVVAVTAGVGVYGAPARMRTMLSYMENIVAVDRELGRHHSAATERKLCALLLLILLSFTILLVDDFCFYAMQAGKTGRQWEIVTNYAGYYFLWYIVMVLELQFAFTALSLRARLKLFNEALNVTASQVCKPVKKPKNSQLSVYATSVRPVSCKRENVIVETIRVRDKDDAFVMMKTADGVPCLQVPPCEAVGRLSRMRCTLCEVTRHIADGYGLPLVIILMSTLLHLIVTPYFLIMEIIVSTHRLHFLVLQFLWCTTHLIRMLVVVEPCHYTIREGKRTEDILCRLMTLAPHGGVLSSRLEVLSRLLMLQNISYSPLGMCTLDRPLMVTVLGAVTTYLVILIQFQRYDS
- Protocol details: GCaMP calcium flux assay, BmGr9 F189Y
pEC50: −log10 of the molar value.
Reported property: pEC50

*Q* # get_value(readout='pEC50', item= O=C(CO)[C@@H](O)[C@H](O)[C@H](O)CO [D-fructose] )
*A* ~4.00

###

- Target entity: BmGr9 Q443E_Q445A (Bombyx mori, UniProt B3GTD7, Q443E/Q445A)
- Protocol details: GCaMP calcium flux assay, BmGr9 Q443E_Q445A
- Assay type: cell-based
Reported property: pEC50
A value of pEC50 is the negative decimal logarithm of a concentration given in moles per litre.

*Q* # get_value(readout='pEC50', item= O=C(CO)[C@@H](O)[C@H](O)[C@H](O)CO )
*A* 2.82

###

- Target entity: BmGr9 Y332F (Bombyx mori, UniProt B3GTD7, Y332F)
- Sequence (B3GTD7 entry or part of it Y332F): as the sequence (B3GTD7 entry or part of it F189Y) above, with Y189F, Y332F counted along it
- Protocol details: GCaMP calcium flux assay, BmGr9 Y332F
Reported property: EC50
Remember to follow the number with its unit.

*Q* # get_value(readout='EC50', item= O=C(CO)[C@@H](O)[C@H](O)[C@H](O)CO )
*A* 2600 µM

###

- Target entity: BmGr9 (Bombyx mori)
- Sequence (B3GTD7 entry or part of it): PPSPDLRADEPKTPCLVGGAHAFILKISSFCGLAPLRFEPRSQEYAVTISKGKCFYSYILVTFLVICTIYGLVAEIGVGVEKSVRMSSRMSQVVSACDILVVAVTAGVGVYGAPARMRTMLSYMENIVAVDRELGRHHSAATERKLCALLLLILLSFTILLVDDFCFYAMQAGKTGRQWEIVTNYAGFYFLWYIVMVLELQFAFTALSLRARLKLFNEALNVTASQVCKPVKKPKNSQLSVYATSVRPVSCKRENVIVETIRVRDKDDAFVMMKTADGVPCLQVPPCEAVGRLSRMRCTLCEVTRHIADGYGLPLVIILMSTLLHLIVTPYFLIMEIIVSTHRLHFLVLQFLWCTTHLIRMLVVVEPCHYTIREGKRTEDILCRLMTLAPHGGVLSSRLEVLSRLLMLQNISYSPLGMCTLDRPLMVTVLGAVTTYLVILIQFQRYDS
- Protocol details: Cell-based GCaMP calcium flux assay, wild-type BmGr9
- Details: EC50, WT BmGr9; 95% CI in parentheses
Reported property: pEC50
A value of pEC50 is the negative decimal logarithm of a concentration given in moles per litre.

*Q* # get_value(readout='pEC50', item= O=C(CO)[C@@H](O)[C@H](O)[C@H](O)CO )
*A* 2.06

###

- Target entity: BmGr9 Q445A (Bombyx mori, UniProt B3GTD7, Q445A)
- Sequence (B3GTD7 entry or part of it Q445A): as the sequence (B3GTD7 entry or part of it Q351N) above, with N351Q, Q445A counted along it
- Protocol details: GCaMP calcium flux assay, BmGr9 Q445A
Reported property: pEC50
A value of pEC50 is the negative decimal logarithm of a concentration given in moles per litre.

*Q* # get_value(readout='pEC50', item= O=C(CO)[C@@H](O)[C@H](O)[C@H](O)CO )
*A* 2.70

###

- Target entity: BmGr9 P331A (Bombyx mori, UniProt B3GTD7, P331A)
- Sequence (B3GTD7 entry or part of it P331A): as the sequence (B3GTD7 entry or part of it F189Y) above, with Y189F, P331A counted along it
- Protocol details: GCaMP calcium flux assay, BmGr9 P331A
Reported property: EC50 (mM)
Write the answer as a number in mM, unit excluded.

*Q* # get_value(readout='EC50', item= O=C(CO)[C@@H](O)[C@H](O)[C@H](O)CO )
*A* 5.5

###

- Target entity: BmGr9 Q445E (Bombyx mori, UniProt B3GTD7, Q445E)
- Protocol details: GCaMP calcium flux assay, BmGr9 Q445E
Reported property: EC50 (mM)
Write the answer as a number in mM, unit excluded.

*Q* # get_value(readout='EC50', item= O=C(CO)[C@@H](O)[C@H](O)[C@H](O)CO )
*A* 15.3

###

- Target entity: BmGr9 Q351A (Bombyx mori, UniProt B3GTD7, Q351A)
- Sequence (B3GTD7 entry or part of it Q351A): as the sequence (B3GTD7 entry or part of it F189Y) above, with Y189F, Q351A counted along it
- Protocol details: GCaMP calcium flux assay, BmGr9 Q351A
Reported property: EC50 (mM)
Write the answer as a number in mM, unit excluded.

*Q* # get_value(readout='EC50', item= O=C(CO)[C@@H](O)[C@H](O)[C@H](O)CO )
*A* 3.9
